biological target: C-X-C chemokine receptor type 6 (Homo sapiens); assay: blockade of CXCL16-induced CXCR6 beta-arrestin recruitment – cell-based, luminescence, CHO-K1 PathHunter, 1536-well, primary screen (AID 602244); details: at 20 µM, hits give high values;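 further: antagonist mode with CXCL16 agonist at 10 nM final; 0% = 10 nM CXCL16 with DMSO and 100% = unstimulated wells without agonist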
Screen size: about 360,000 compounds; about 1,300 (0.36%) were called active. The sample holds actives, similar compounds and a random draw of the others, so the mix is not that of the screen.
MEASUREMENT KIND: inhibition (%)

compound=S=c1[nH]ccn1-c1ccc(Cl)cc1 units_text=% value=-3.9
compound=C=CCOc1ccc(Cl)cc1CNCCCN1CCOCC1 units_text=% value=-3
compound=COCCCNC(=S)NNC(=O)C(O)(c1ccccc1)c1ccccc1 units_text=% value=14.6
compound=COCCCNC(=S)NC(=O)c1ccc([N+](=O)[O-])cc1 units_text=% value=75
compound=Cc1ccc(S(=O)(=O)N2CCOCC2)cc1NC(=O)c1ccncc1 units_text=% value=-5.9
compound=COC(=O)CN1C(=O)[C@H]2[C@@H](/C=C/c3ccccc3)N3C(=O)CN(Cc4ccccc4)C(=O)[C@@]3(Cc3ccccc3)[C@H]2C1=O units_text=% value=-9.8
compound="O=C(c1ccccc1)C(Cn1cncn1)C(Sc1ccccc1)c1ccccc1 (configuration not stated)" units_text=% value=5.2
compound=O=C(NN1CCOCC1)c1cccc(F)c1 units_text=% value=0.7
compound=CCCNC(=O)c1cnc(-c2ccccc2)nc1-c1ccccc1 units_text=% value=12
compound=O=[N+]([O-])/C=C/c1ccc2c(ccn2Cc2ccccc2)c1 units_text=% value=73.1
compound=COCCNc1nc(-c2ccccc2)nc2c1oc1ccccc12 units_text=% value=-2.7
compound=CCc1nn(-c2cc(Oc3cccc4ccccc34)nc(-c3ccccc3)n2)c(N)c1C#N units_text=% value=0.4
compound="Cc1cccc(N2C(=O)CC(SC(N)=Nc3ccccc3)C2=O)c1 (configuration not stated)" units_text=% value=2.2
compound="OCCC1CN(Cc2cccc(OC3CCCC3)c2)CCN1Cc1ccsc1 (configuration not stated)" units_text=% value=4.2
compound=Cc1ccc(-n2[nH]c(C)c(/C=N/N3C(=O)c4cccc5cccc(c45)C3=O)c2=O)cc1 units_text=% value=48.5
compound=Cc1cccc(-n2c(O)c(C=Nc3ccccc3N)c(=O)[nH]c2=O)c1 units_text=% value=108
compound="CC(=O)N1c2ccc(S(=O)(=O)N3CCCC(C(=O)Nc4cccc(F)c4)C3)cc2CC1C (configuration not stated)" units_text=% value=-11.7

====

molecular target: C-X-C chemokine receptor type 6 (Homo sapiens) (UniProt O00574); test: blockade of CXCL16-induced CXCR6 beta-arrestin recruitment – cell-based, luminescence, CHO-K1 PathHunter, 1536-well, primary screen (AID 602244); details: at 20 µM;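 further: antagonist mode with CXCL16 agonist at 10 nM final; 0% = 10 nM CXCL16 with DMSO and 100% = unstimulated wells without agonist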
Sequence (O00574 whole entry, looked up): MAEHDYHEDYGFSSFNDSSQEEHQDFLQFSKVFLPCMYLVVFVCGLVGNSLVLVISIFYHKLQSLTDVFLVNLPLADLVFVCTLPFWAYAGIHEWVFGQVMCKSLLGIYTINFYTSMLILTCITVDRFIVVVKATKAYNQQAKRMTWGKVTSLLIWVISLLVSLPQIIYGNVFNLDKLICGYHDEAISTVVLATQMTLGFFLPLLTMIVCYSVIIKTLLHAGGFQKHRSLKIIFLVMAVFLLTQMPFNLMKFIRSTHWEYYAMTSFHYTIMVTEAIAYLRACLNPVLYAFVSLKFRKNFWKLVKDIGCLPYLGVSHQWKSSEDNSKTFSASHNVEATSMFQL
The campaign covered roughly 360,000 compounds. About 1,300 (0.36%) were called active. Cut-off read from the data, not from the text of the source: active = inhibition above about 34% (passing the limit was not always enough); inactive = the rest. The entries come from a sample that favours actives as a whole.
Outcome codes: active, inactive

compound=Oc1ccc2ccccc2c1N=Nc1nccs1 system_tested="C-X-C chemokine receptor type 6 (Homo sapiens) (UniProt O00574)" class_name=active
compound="O=C1CC(c2cccc(F)c2)C2=C(CCCC2=O)N1 (configuration not stated)" system_tested="C-X-C chemokine receptor type 6 (Homo sapiens) (UniProt O00574)" class_name=inactive
compound=COC(=O)C1=C(C(=O)OC)[C@@H]2N(C)c3ccccc3[C@@]23C[C@@H](C(=O)OC)N(C(C)=O)C3=N1 system_tested="C-X-C chemokine receptor type 6 (Homo sapiens) (UniProt O00574)" class_name=inactive
compound=CC(=NNC(=S)N1CCCCCC1)c1ccccn1 system_tested="C-X-C chemokine receptor type 6 (Homo sapiens) (UniProt O00574)" class_name=inactive
compound="CC(NC(=O)Cn1cc(C(F)(F)F)cc(Cl)c1=O)c1ccccc1 (configuration not stated)" system_tested="C-X-C chemokine receptor type 6 (Homo sapiens) (UniProt O00574)" class_name=inactive
compound=COC(=O)/C=C\C(=O)Nc1cccc([N+](=O)[O-])c1 system_tested="C-X-C chemokine receptor type 6 (Homo sapiens) (UniProt O00574)" class_name=active
compound=O=C(CSc1nc2cc3c(cc2c(=O)n1CCC1=CCCCC1)OCO3)NCc1ccco1 system_tested="C-X-C chemokine receptor type 6 (Homo sapiens) (UniProt O00574)" class_name=inactive
compound=COc1cccc(NC(=O)Cn2c3ccc(F)cc3c3nc4n(c(=O)c32)CCS4)c1 system_tested="C-X-C chemokine receptor type 6 (Homo sapiens) (UniProt O00574)" class_name=inactive
compound=COc1cc(NC(=O)C2CCN(c3cnccn3)CC2)cc(OC)c1 system_tested="C-X-C chemokine receptor type 6 (Homo sapiens) (UniProt O00574)" class_name=inactive
compound=Cc1cc(OCCOc2cccc3cccnc23)c(C)cc1Cl system_tested="C-X-C chemokine receptor type 6 (Homo sapiens) (UniProt O00574)" class_name=inactive
compound=COc1cccc(NCCC(=O)c2cccc([N+](=O)[O-])c2)c1 system_tested="C-X-C chemokine receptor type 6 (Homo sapiens) (UniProt O00574)" class_name=inactive
compound=O=C(Cc1ccccc1)N1CCN(S(=O)(=O)c2ccc([N+](=O)[O-])cc2)CC1 system_tested="C-X-C chemokine receptor type 6 (Homo sapiens) (UniProt O00574)" class_name=inactive
compound=CC(=O)/C(=N\Nc1ccc(Cl)cc1Cl)Sc1cccc2cccnc12 system_tested="C-X-C chemokine receptor type 6 (Homo sapiens) (UniProt O00574)" class_name=active
compound=CCCCOc1ccc(C(=O)NCC(=O)OCC(=O)c2c(N)n(C)c(=O)n(C)c2=O)cc1 system_tested="C-X-C chemokine receptor type 6 (Homo sapiens) (UniProt O00574)" class_name=inactive
compound=COc1ccc(CCNC(=O)CSc2nc(-c3ccc(OC)c(OC)c3)ccc2C#N)cc1 system_tested="C-X-C chemokine receptor type 6 (Homo sapiens) (UniProt O00574)" class_name=inactive
compound="CC(NC(=O)Nc1cccc([N+](=O)[O-])c1)c1ccc2c(c1)OCO2 (configuration not stated)" system_tested="C-X-C chemokine receptor type 6 (Homo sapiens) (UniProt O00574)" class_name=inactive
compound="O=C(C1CC(=O)N(c2ccc(F)cc2)C1)N1CCN(c2ccccc2)CC1 (configuration not stated)" system_tested="C-X-C chemokine receptor type 6 (Homo sapiens) (UniProt O00574)" class_name=inactive
compound=Cc1ccc(-c2noc(CCC(=O)Nc3ccccc3N3CCN(C)CC3)n2)cc1 system_tested="C-X-C chemokine receptor type 6 (Homo sapiens) (UniProt O00574)" class_name=inactive
compound=COc1cccc(CNC(=O)C2CCN(S(=O)(=O)c3cccc4cccnc34)CC2)c1 system_tested="C-X-C chemokine receptor type 6 (Homo sapiens) (UniProt O00574)" class_name=inactive
compound=O=C1CCCN1C(=O)COc1ccc([N+](=O)[O-])cc1 system_tested="C-X-C chemokine receptor type 6 (Homo sapiens) (UniProt O00574)" class_name=inactive
compound=S=C(NCCC1=CCCCC1)Nc1ccccc1 system_tested="C-X-C chemokine receptor type 6 (Homo sapiens) (UniProt O00574)" class_name=inactive
compound=O=C1CCC(=O)N1CCC(=O)N(C(=O)NC1CCCCC1)C1CCCCC1 system_tested="C-X-C chemokine receptor type 6 (Homo sapiens) (UniProt O00574)" class_name=inactive

====

Entries and their measured inhibition follow.
target: C-X-C chemokine receptor type 6 (Homo sapiens); assay: blockade of CXCL16-induced CXCR6 beta-arrestin recruitment – cell-based, luminescence, CHO-K1 PathHunter, 1536-well, primary screen (AID 602244); details: at 20 µM, hits give high values;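 further: antagonist mode with CXCL16 agonist at 10 nM final; 0% = 10 nM CXCL16 with DMSO and 100% = unstimulated wells without agonist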
About 1,300 (0.36%) of roughly 360,000 compounds were called active. The entries come from a sample that favours actives as a whole.
MEASUREMENT KIND: inhibition (%)

compound=CCOC(=O)C(=Cc1ccccc1)C(=O)c1ccccc1 value=24
compound="CC(=O)Nc1ccc(S(=O)(=O)NCC2CCC(C(=O)NCCc3ccccc3)CC2)cc1 (centres undefined)" value=6.1
compound=Cc1cc(C)nc(S/C=C/C(=O)c2ccccc2)n1 value=46.1
compound="CCCNC(=O)C1(C)CCN(C(=O)c2cc(F)ccc2C)C1 (centres undefined)" value=0.9
compound=CCN(CC)CCCNC(=O)CCn1nc(-c2ccc(Cl)cc2)ccc1=O value=2.5
compound="CCCCCCCCCCOC(=O)C[N+](C)(C)CC1CCCCC1O (centres undefined)" value=57.1
compound=Cc1ccc(NC(=O)CN(C)C(=O)COC(=O)c2nccnc2N)cc1 value=-1.8
compound="COC(=O)c1cc(OC)c(OC)cc1NC(=O)C1CCCO1 (centres undefined)" value=0.8
compound="CN(C)S(=O)(=O)c1ccc(Cl)c(NC(=O)COC(=O)CC(NC(N)=O)c2ccc(Cl)cc2)c1 (centres undefined)" value=-0.2
compound="CSCCC(NC(=O)COc1ccccc1)C(=O)OCC(=O)c1cc2ccccc2o1 (centres undefined)" value=37.7
compound=O=C1C(Cl)=C(Oc2ccccc2)C(=O)c2ccccc21 value=104
compound=C/C(=N\NC(=S)NCc1ccccc1)C1CCCCC1 value=21.2
compound=CCOC(=O)N1CCC(Nc2c(NCCCN3CCN(CC)CC3)c(=O)c2=O)CC1 value=8.9
compound=O=C(Nc1ccccc1C(=O)N1CCCCCC1)c1ccccc1Cl value=10.2
compound=O=C(CNc1ccccc1N1CCCC1=O)Nc1cc(Cl)ccc1-n1cncn1 value=-1
compound=Cc1ccc([C@H]2N[C@]3(CCCN(Cc4ccccc4)C3=O)[C@H]3C(=O)N(Cc4ccccc4)C(=O)[C@@H]23)cc1 value=3.3
compound="O=C(Nc1ccccc1Cl)/C(Cl)=C(\\Cl)S(=O)c1ccccc1 (centres undefined)" value=93.1
compound=O=C(COc1cccc2c1CCNC2=O)NC1CCCCC1 value=-2.3
compound=Cc1cc(F)ccc1NC(=S)NCCc1ccccc1 value=-0.7
